We begin with a simple list: items and their reported protein stability index.
B1: SOAT1 (parent)
chain: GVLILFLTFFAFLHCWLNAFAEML

# Variants of: B1
# method: protein stability index of a GFP-peptide fusion (GPS, HEK-293T) (PSI 1-6); higher = more stable;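 also: lentivirally expressed fusions sorted by FACS into six bins by GFP to DsRed ratio, PSI derived from sequencing read proportions per bin multiplied by bin number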
# recorded conditions: c terminus: a fixed tail appended
Lab note: jot the number down without any unit.

variant_notation=A21N value=2.76
variant_notation=F10V value=2.75
variant_notation=F20I value=2.67
variant_notation=W16Y value=2.31

Reported protein stability index ( F6S ) = 2.73

Reported protein stability index ( A11I ) = 3.38

Reported protein stability index ( I4Q ) = 4.98
